target: CRAC channels (Homo sapiens (Human), UniProt Q96D31); assay: In-vitro CRAC channel inhibition assay in Jurkat cells (thapsigargin-induced calcium influx); type: cell-based
Sequence (Q96D31 whole entry): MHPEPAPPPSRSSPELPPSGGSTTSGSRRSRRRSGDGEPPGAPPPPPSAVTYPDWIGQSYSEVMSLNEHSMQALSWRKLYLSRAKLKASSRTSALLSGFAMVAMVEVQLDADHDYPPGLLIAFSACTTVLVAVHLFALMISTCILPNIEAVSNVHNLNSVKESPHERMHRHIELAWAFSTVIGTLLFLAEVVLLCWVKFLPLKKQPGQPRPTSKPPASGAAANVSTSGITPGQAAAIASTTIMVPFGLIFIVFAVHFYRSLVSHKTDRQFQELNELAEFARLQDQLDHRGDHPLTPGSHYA
inhibition at 1 µM values, listed per item
Dear colleague, please return just the value in %, with no unit written.

Check out these entries, answers already filled in.
Cc1noc(C)c1C(=O)Nc1ccc(-n2nc(C(F)(F)F)cc2C2CC2)c(F)c1 [Example 85]	76.6
Cc1ncsc1C(=O)Nc1ccc(-n2nc(C(F)(F)F)c(Cl)c2C2CC2)cc1 [Example 80]	81.6

Here is the next item to consider.
State its inhibition at 1 µM: Cc1oncc1C(=O)Nc1ccc(-n2nc(C3CC3)cc2C2CC2)cc1 [Example 4]
100
